Item-by-item account of Kd
- Assayed System: SARS-CoV-2 spike RBD (WT) (Severe acute respiratory syndrome …, UniProt P0DTC2)
- Method: BLI

[
  {
    "Binder": "D100 (antibody, V domains shown) VH: QVQLVQSGAEVKKPGASVKVSCKASGYTFTSYGISWVRQAPGQGLEWMGWISAYNGNTNYAQKLQGRVTMTTDTSTSTAYMELRSLRSDDTAVYYCARVPDRRETPYYDFWSGYSIFDYWGQGTLVTVSS VL: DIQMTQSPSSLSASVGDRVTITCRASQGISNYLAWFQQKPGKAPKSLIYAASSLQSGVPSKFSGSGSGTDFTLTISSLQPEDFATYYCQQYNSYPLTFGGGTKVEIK",
    "Kd [nM]": 530
  },
  {
    "Binder": "D053 (antibody, V domains shown) VH: EVQLVESGGGLVKPGGSLRLSCAASGFTFSNAWMSWVRQAPGKGLEWIGRIKSNTDGGTIDYAAPVKGRFTISRDDSKNTLYLQMNSLKTEDTAVYYCTTDGAFFVVADPFDYWGQGTLVTVSS VL: DIQMTQSPSSLSASVGDRVTITCRASQSMTNYLNWYQQKPGKAPELLIYGVSSLQSGVPSRFSGSGSGTDFTLTISSLQPEDFATYYCQQSYRTPRTFGQGTKVEIK",
    "Kd [nM]": 2420
  },
  {
    "Binder": "C2710 (antibody, V domains shown) VH: EVQLVESGGGLVQPGGSLRLSCAASGFTFSSYWMSWVRQAPGKGLEWVANINQDGSEIHYVDSVKGRFTISRDNAKNSLYLQMNSLRAEDTAVYYCAREGGPYDFWSGSNWFDPWGQGTLVTVSS VL: QSALTQPASVSGSPGQSITISCTGTSSDVGGYNFVSWYQQRPGKAPKLMIYEVHNRPSGVSNHFSGSKSGNTASLTISGLQAEDEADYYCSSYTSNSLYVFGTGTKVTVL",
    "Kd [nM]": 11.9
  },
  {
    "Binder": "C2719 (antibody, V domains shown) VH: EVQLVESGGGLIQPGGSLRLSCAASGFTVSSNYMSWVRQAPGKGLEWVSVIYSGGSTYYADSVKGRFTISRDNSKNTLYLQMNSLRAEDTAVYYCARDLGPYGMDVWGQGTTVTVSS VL: DIQLTQSPSFLSASVGDRVTITCRASQGISSYLAWYQQKPGKAPKLLIYAASTLQSGVPSRFSGSGSGTEFTLTISSLQPEDFATYYCQQLNSYPPEIGQGTRLEIK",
    "Kd [nM]": 127
  },
  {
    "Binder": "C2739 (antibody, V domains shown) VH: EVQLVESGGGLVQPGGSLRLSCAASGFTFSSYWMSWVRQAPGKGLEWVANIKKDGSEKYYVDSVKGRFTISRDNDKNSLYLQMNSLRAEDTAVYYCARKKYYYGDFDYWGQGTLVTVSS VL: NFMLTQPHSVSESPGKTVTISCTRSSGSIASNYVQWYQQRPGSSPTTVIYEDNQRPSGVPDRFSGSIDSSSNSASLTISGLKTEDEADYYCQSYDSIIREVFGGGTKLTVL",
    "Kd [nM]": 287
  }
]
